- System under test: T1, full-length beta-Catenin (Uniprot ID P35222) (Homo sapiens (Human), UniProt P35222 2-781)
- T1 construct: Tags of the recombinant protein are not described for the FP assay; also called bCat; B-Catenin
- T1 sequence: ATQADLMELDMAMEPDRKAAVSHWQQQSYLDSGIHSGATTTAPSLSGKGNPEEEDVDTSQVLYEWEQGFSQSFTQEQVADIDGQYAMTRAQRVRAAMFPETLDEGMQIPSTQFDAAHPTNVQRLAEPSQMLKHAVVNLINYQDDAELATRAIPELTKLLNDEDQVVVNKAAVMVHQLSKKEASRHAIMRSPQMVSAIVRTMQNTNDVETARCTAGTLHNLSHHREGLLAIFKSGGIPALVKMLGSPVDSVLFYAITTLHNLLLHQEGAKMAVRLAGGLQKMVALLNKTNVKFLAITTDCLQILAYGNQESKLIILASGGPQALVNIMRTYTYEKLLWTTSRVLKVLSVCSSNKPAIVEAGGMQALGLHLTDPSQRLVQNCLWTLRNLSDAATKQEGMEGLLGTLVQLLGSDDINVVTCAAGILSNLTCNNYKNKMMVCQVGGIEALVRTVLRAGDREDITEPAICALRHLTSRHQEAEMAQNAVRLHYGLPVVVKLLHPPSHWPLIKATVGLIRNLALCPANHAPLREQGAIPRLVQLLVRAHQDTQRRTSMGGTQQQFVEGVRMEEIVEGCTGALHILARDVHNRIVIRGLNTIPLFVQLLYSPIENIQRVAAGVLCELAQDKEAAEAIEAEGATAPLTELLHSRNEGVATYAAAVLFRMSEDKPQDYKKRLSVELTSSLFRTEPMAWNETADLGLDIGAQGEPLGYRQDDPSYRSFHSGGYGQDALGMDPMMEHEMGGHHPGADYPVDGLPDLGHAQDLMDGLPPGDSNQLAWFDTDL
- Assay name: fluorescence polarization competition; full-length beta-catenin, competitor 5FAM-TCF4 10-53
Starred links: 1 amine or outer side, 2 acyl side, 3 side chain; linkers in the order of their positions; H or OH if unused. Positions of bridges follow the written chain, without caps; N, C: chain ends. Non-standard residues stand in square brackets, D forms with d. Primed or numbered codes have the meaning given here. B5(16) = 2-amino-2-(pent-4-en-1-yl)hept-6-enoic acid = 2,2-bis(4-pentenyl)glycine (stitching residue), C=CCCCC(CCCC=C)(N[*:1])C(=O)[*:2]; B5(9) = 2-amino-2-(pent-4-en-1-yl)hept-6-enoic acid (2,2-bis(4-pentenyl)glycine), C=CCCCC(CCCC=C)(N[*:1])C(=O)[*:2]; Bta = N[C@@H](Cc1csc2ccccc12)C(=O)O; αAllylPro = C=CC[C@@]1(C(=O)O)CCCN1; S8 = C=CCCCCCC[C@](C)(N)C(=O)O
Measurement label: pIC50
Convention used: pIC50 is expressed as -log10 of the molar concentration.

Before answering, review these 5 worked examples.
binder="Ac-[αAllylPro]DI[B5(16)]DEAAFQ[S8]F[Bta]R-NH2 (staple 1-4, 4-11, Stapled peptide composition; also called Ac-PL3-Asp-Ile-B5-Asp-Glu-Ala-Ala-Phe-Gln-S8-Phe-BztA-Arg-NH2) [I-633]" recorded_measurement=7.06
binder="Ac-[αAllylPro]DI[B5(9)]DEAAFQ[S8]F[Bta]W-NH2 (staple 1-4, 4-11, Stapled peptide composition; also called Ac-PL3-Asp-Ile-B5-Asp-Glu-Ala-Ala-Phe-Gln-S8-Phe-BztA-Trp-NH2) [I-643]" recorded_measurement=6.02
binder="XDIXDEAAFQXFXP (not fully specified; As printed: Ac-PL3-Asp-Ile-B5-Asp-Glu-Ala-Ala-Phe-Gln-S8-Phe-BztA-Pro-NH2; N-terminal Ac, C-terminal NH2; PL3 (1), B5 (4), S8 (11), BztA (13); staples PL3-B5 and B5-S8 by olefin metathesis, Stapled peptide composition; also called Ac-PL3-Asp-Ile-B5-Asp-Glu-Ala-Ala-Phe-Gln-S8-Phe-BztA-Pro-NH2) [I-638]" recorded_measurement=5.41
binder="Ac-[αAllylPro]DI[B5(9)]DEAAFQ[S8]F[Bta]W-NH2 (staple 1-4, 4-11, Stapled peptide composition; also called Ac-PL3-Asp-Ile-B5-Asp-Glu-Ala-Ala-Phe-Gln-S8-Phe-BztA-Trp-NH2) [I-644]" recorded_measurement=6.09
binder="XDIXDEAAFQXFXT (not fully specified; As printed: Ac-PL3-Asp-Ile-B5-Asp-Glu-Ala-Ala-Phe-Gln-S8-Phe-BztA-Thr-NH2; N-terminal Ac, C-terminal NH2; PL3 (1), B5 (4), S8 (11), BztA (13); staples PL3-B5 and B5-S8 by olefin metathesis, Stapled peptide composition; also called Ac-PL3-Asp-Ile-B5-Asp-Glu-Ala-Ala-Phe-Gln-S8-Phe-BztA-Thr-NH2) [I-641]" recorded_measurement=6.91

I would be grateful if you could share the reported pIC50 for Ac-[αAllylPro]DI[B5(16)]DEFAFQ[S8]F[Bta]Q-NH2 (staple 1-4, 4-11, Stapled peptide composition; also called Ac-PL3-Asp-Ile-B5-Asp-Glu-Phe-Ala-Phe-Gln-S8-Phe-BztA-Gln-NH2) [I-650] .
6.86

Now consider Ac-[αAllylPro]DI[B5(16)]DEAAFQ[S8]F[Bta]F-NH2 (staple 1-4, 4-11, Stapled peptide composition; also called Ac-PL3-Asp-Ile-B5-Asp-Glu-Ala-Ala-Phe-Gln-S8-Phe-BztA-Phe-NH2) [I-635] .
6.77

Item: Ac-[αAllylPro]DI[B5(16)]DESAFQ[S8]F[Bta]Q-NH2 (staple 1-4, 4-11, Stapled peptide composition; also called Ac-PL3-Asp-Ile-B5-Asp-Glu-Ser-Ala-Phe-Gln-S8-Phe-BztA-Gln-NH2) [I-651]
6.73

What about Ac-[αAllylPro]DI[B5(9)]DELAFQ[S8]F[Bta]Q-NH2 (staple 1-4, 4-11, Stapled peptide composition; also called Ac-PL3-Asp-Ile-B5-Asp-Glu-Leu-Ala-Phe-Gln-S8-Phe-BztA-Gln-NH2) [I-647] ?
6.35

One more binder: XDIXDEAAFQXFXP (not fully specified; As printed: Ac-PL3-Asp-Ile-B5-Asp-Glu-Ala-Ala-Phe-Gln-S8-Phe-BztA-Pro-NH2; N-terminal Ac, C-terminal NH2; PL3 (1), B5 (4), S8 (11), BztA (13); staples PL3-B5 and B5-S8 by olefin metathesis, Stapled peptide composition; also called Ac-PL3-Asp-Ile-B5-Asp-Glu-Ala-Ala-Phe-Gln-S8-Phe-BztA-Pro-NH2) [I-637]
5.30

Another binder to look at: Ac-[αAllylPro]DI[B5(9)]DELAFQ[S8]F[Bta]Q-NH2 (staple 1-4, 4-11, Stapled peptide composition; also called Ac-PL3-Asp-Ile-B5-Asp-Glu-Leu-Ala-Phe-Gln-S8-Phe-BztA-Gln-NH2) [I-648]
6.63

Could you do the same for Ac-[αAllylPro]DI[B5(16)]DEAAFQ[S8]F[Bta]L-NH2 (staple 1-4, 4-11, Stapled peptide composition; also called Ac-PL3-Asp-Ile-B5-Asp-Glu-Ala-Ala-Phe-Gln-S8-Phe-BztA-Leu-NH2) [I-634] , please?
6.37

The values you see were collected from patent US20240116985A1.
